Value source: patent US20240025883A1

pIC50 values for the molecules below.
Biological target: human GPR17 short isoform (Homo sapiens (Human))
Assay: GPR17 cAMP assay (hGPR17 cAMP, antagonist mode against EC80 of MDL29,951)
Details: CHO-K1 cells stably expressing human GPR17 short isoform; EC80 of agonist MDL29,951; forskolin 15 μM
Source text: GPR17 cAMP Assay Protocol: […] Changes in intracellular cyclic adenosine monophosphate (cAMP) levels were quantified using the Nano-TRF Detection Assay kit (Roche Diagnostics, Cat. No. 05214386001). This assay allows for direct cAMP quantification in a homogeneous solution, cAMP is detected based on time-resolved fluorescence energy transfer (TR-FRET) and competitive binding of ruthenylated cAMP and endogenous cAMP to an anti-cAMP monoclonal antibody labeled with AlexaFluor-700. […]
# pIC50 = -log10(concentration in molar units)

{"MOLECULE": "COc1nc(NS(=O)(=O)c2c[nH]c3cc(F)ccc23)nc(OC)c1OCC(F)F [Example 257]", "pIC50": 7.08}
{"MOLECULE": "COc1nc(NS(=O)(=O)c2c[nH]c3nc(Cl)ccc23)ncc1OCCF [Example 10]", "pIC50": 7.02}
{"MOLECULE": "COc1nc(NS(=O)(=O)c2c[nH]c3nc(Br)ccc23)ncc1CC(F)F [Example 200]", "pIC50": 7.18}

## Input Item COc1nc(NS(=O)(=O)c2c[nH]c3cc(Cl)c(F)cc23)ncc1CC(F)F [Example 185] has what recorded pIC50?
## Output 7.05

## Input Item COc1nc(NS(=O)(=O)c2c[nH]c3c(SC(F)F)c(Cl)ccc23)nc(OC)c1CCC#N [Example 107] has what recorded pIC50?
## Output 7.92

## Input Item COc1nc(NS(=O)(=O)c2c[nH]c3nc(Cl)ccc23)ncc1CC(F)F [Example 203] has what recorded pIC50?
## Output 6.90

## Input Item COc1nc(NS(=O)(=O)c2c[nH]c3c(OCF)c(Cl)ccc23)ncc1CC(F)F [Example 198] has what recorded pIC50?
## Output 7.44

## Input Item COc1nc(NS(=O)(=O)c2c[nH]c3cc(Cl)ccc23)nc(C)c1CC(F)F [Example 78] has what recorded pIC50?
## Output 6.61

* * *

pIC50 values for the compounds below.
biological target: human GPR17 short isoform (Homo sapiens (Human)); test: GPR17 cAMP assay (hGPR17 cAMP, antagonist mode against EC80 of MDL29,951); settings: CHO-K1 cells stably expressing human GPR17 short isoform; EC80 of agonist MDL29,951; forskolin 15 μM
# pIC50 = -log10(concentration in molar units)

## Input Item COc1nc(NS(=O)(=O)c2csc3nc(Cl)ccc23)ncc1OCCF has what recorded pIC50?
## Output 7.08

* * *

log10 IC50 values for the molecules below.
Biological target: human GPR17 short isoform (Homo sapiens (Human))
Experiment: GPR17 cAMP assay (hGPR17 cAMP, antagonist mode against EC80 of MDL29,951)
Conditions: CHO-K1 cells stably expressing human GPR17 short isoform; EC80 of agonist MDL29,951; forskolin 15 μM
From the text: GPR17 cAMP Assay Protocol: […] Changes in intracellular cyclic adenosine monophosphate (cAMP) levels were quantified using the Nano-TRF Detection Assay kit (Roche Diagnostics, Cat. No. 05214386001). This assay allows for direct cAMP quantification in a homogeneous solution, cAMP is detected based on time-resolved fluorescence energy transfer (TR-FRET) and competitive binding of ruthenylated cAMP and endogenous cAMP to an anti-cAMP monoclonal antibody labeled with AlexaFluor-700. […]
Log scale reminder: IC50 in nM, then log10 taken.

Example entries and their recorded answers appear below.
{"MOLECULE": "O=S(=O)(Nc1ncc(OCC(F)F)c(Cl)n1)c1c[nH]c2cc(Cl)ccc12", "log10 IC50": 2.96}
{"MOLECULE": "COc1nc(NS(=O)(=O)c2c[nH]c3c(S(C)(=O)=O)c(Cl)ccc23)ncc1CC(F)F", "log10 IC50": 2.86}
{"MOLECULE": "CCCc1c(OC)nc(NS(=O)(=O)c2c[nH]c3cc(Cl)ccc23)nc1OC", "log10 IC50": 1.23}
{"MOLECULE": "COc1nc(NS(=O)(=O)c2c[nH]c3cc(Cl)ccc23)nc(OC)c1OCCF", "log10 IC50": 1.04}
{"MOLECULE": "COc1nc(NS(=O)(=O)c2c[nH]c3c(SC(F)F)c(Cl)ccc23)nc(OC)c1OCCF", "log10 IC50": 0.85}
{"MOLECULE": "COc1nc(NS(=O)(=O)c2c[nH]c3c(Br)c(Cl)ccc23)ncc1CCC(F)F", "log10 IC50": 1.36}
{"MOLECULE": "COc1nc(NS(=O)(=O)c2c[nH]c3cc(CC#N)ccc23)ncc1CC(F)F", "log10 IC50": 2.99}
{"MOLECULE": "COc1nc(NS(=O)(=O)c2csc3c(F)c(Cl)ccc23)ncc1CCC#N", "log10 IC50": 2.33}
{"MOLECULE": "COc1nc(NS(=O)(=O)c2c[nH]c3c(OC)c(Cl)ccc23)ncc1CCC(F)F", "log10 IC50": 1.26}
{"MOLECULE": "COc1nc(NS(=O)(=O)c2c[nH]c3c(F)c(Cl)ccc23)ncc1OCC(F)F", "log10 IC50": 1.96}

## Input Item COc1nc(NS(=O)(=O)c2csc3nc(Br)ccc23)nc(OC)c1CCC#N has what recorded log10 IC50?
## Output 1.46

## Input Item COc1nc(NS(=O)(=O)c2c[nH]c3nc(Br)ccc23)nc(OC)c1CCC#N has what recorded log10 IC50?
## Output 1.32

## Input Item CCc1nc(NS(=O)(=O)c2c[nH]c3cc(Cl)ccc23)nc(OC)c1OCC(F)F has what recorded log10 IC50?
## Output 2.17

## Input Item COc1nc(NS(=O)(=O)c2c[nH]c3cc(Br)ccc23)nc(OC)c1CCC#N has what recorded log10 IC50?
## Output 1.00

## Input Item COc1nc(NS(=O)(=O)c2c[nH]c3c([S+](C)[O-])c(Cl)ccc23)nc(OC)c1CC(F)F (stereo not shown) has what recorded log10 IC50?
## Output 1.84

## Input Item COc1nc(NS(=O)(=O)c2c[nH]c3nc(Cl)ccc23)nc(OC)c1CCC(F)F has what recorded log10 IC50?
## Output 1.20

## Input Item COc1nc(NS(=O)(=O)c2c[nH]c3cc(Cl)ccc23)ncc1OCCC(F)F has what recorded log10 IC50?
## Output 2.46

* * *

target: human GPR17 short isoform (Homo sapiens (Human)); assay: GPR17 cAMP assay (hGPR17 cAMP, antagonist mode against EC80 of MDL29,951); assay type: cell-based; conditions: CHO-K1 cells stably expressing human GPR17 short isoform; EC80 of agonist MDL29,951; forskolin 15 μM
READOUT: IC50 (nM)
Answer with a number only, understood to be in nM.

Example entries and their recorded answers appear below.
{"INPUT_SMILES": "COc1nc(NS(=O)(=O)c2c[nH]c3c(F)c(Cl)ccc23)ncc1CCC#N", "TARGET": "human GPR17 short isoform (Homo sapiens (Human))", "IC50, nM": 43}
{"INPUT_SMILES": "COc1nc(NS(=O)(=O)c2c[nH]c3cc(Cl)ccc23)ncc1CC1CC1", "TARGET": "human GPR17 short isoform (Homo sapiens (Human))", "IC50, nM": 918}
{"INPUT_SMILES": "COc1nc(NS(=O)(=O)c2c[nH]c3c(F)c(Cl)ccc23)ncc1OC(F)(F)CF", "TARGET": "human GPR17 short isoform (Homo sapiens (Human))", "IC50, nM": 28}

## Input Item COc1nc(NS(=O)(=O)c2c[nH]c3c(F)c(C(F)F)ccc23)ncc1OCCF has what recorded IC50?
## Output 42

* * *

target: human GPR17 short isoform (Homo sapiens (Human), UniProt Q13304); experiment: GPR17 cAMP assay (hGPR17 cAMP, antagonist mode against EC80 of MDL29,951); conditions: CHO-K1 cells stably expressing human GPR17 short isoform; EC80 of agonist MDL29,951; forskolin 15 μM
Sequence (Q13304 29-367): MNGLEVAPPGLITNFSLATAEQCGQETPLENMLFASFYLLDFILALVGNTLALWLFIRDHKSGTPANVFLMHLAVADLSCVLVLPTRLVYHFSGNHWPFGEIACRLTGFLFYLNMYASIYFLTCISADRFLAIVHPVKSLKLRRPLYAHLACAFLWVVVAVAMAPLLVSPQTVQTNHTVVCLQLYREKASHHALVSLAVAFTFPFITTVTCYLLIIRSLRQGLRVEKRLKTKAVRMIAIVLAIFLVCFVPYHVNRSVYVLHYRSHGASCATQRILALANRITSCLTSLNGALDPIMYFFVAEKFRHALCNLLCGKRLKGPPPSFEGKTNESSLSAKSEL
READOUT: IC50 (nM)
Answer with a number only, understood to be in nM.

{"INPUT_SMILES": "COc1nc(NS(=O)(=O)c2c[nH]c3cc(Cl)ccc23)nc(OC)c1CCCF", "UNIT_NAME": "nM", "IC50": 7}

Alright, here's another compound for you.
## Input Look up IC50 with human GPR17 short isoform (Homo sapiens (Human), UniProt Q13304) for this compound: COc1nc(NS(=O)(=O)c2c[nH]c3c(F)c(C(F)F)ccc23)ncc1CC(F)F
## Output 367

* * *

pIC50 values for the compounds below.
Molecular target: human GPR17 short isoform (Homo sapiens (Human))
Experiment: GPR17 cAMP assay (hGPR17 cAMP, antagonist mode against EC80 of MDL29,951)
Settings: CHO-K1 cells stably expressing human GPR17 short isoform; EC80 of agonist MDL29,951; forskolin 15 μM
Source text: GPR17 cAMP Assay Protocol: […] Changes in intracellular cyclic adenosine monophosphate (cAMP) levels were quantified using the Nano-TRF Detection Assay kit (Roche Diagnostics, Cat. No. 05214386001). This assay allows for direct cAMP quantification in a homogeneous solution, cAMP is detected based on time-resolved fluorescence energy transfer (TR-FRET) and competitive binding of ruthenylated cAMP and endogenous cAMP to an anti-cAMP monoclonal antibody labeled with AlexaFluor-700. […]
# pIC50 = -log10(concentration in molar units)

Example entries and their recorded answers appear below.
{"COMPOUND": "COc1nc(NS(=O)(=O)c2c[nH]c3c(F)c(F)ccc23)ncc1CC(F)F [Example 164]", "READOUT": "pIC50", "OBSERVED_MEASUREMENT": 6.90}
{"COMPOUND": "COc1nc(NS(=O)(=O)c2c[nH]c3c(Br)c(Cl)ccc23)ncc1CCC#N [Example 255]", "READOUT": "pIC50", "OBSERVED_MEASUREMENT": 7.42}
{"COMPOUND": "COc1nc(NS(=O)(=O)c2c[nH]c3c2ccc2cccnc23)ncc1CC(F)F [Example 222]", "READOUT": "pIC50", "OBSERVED_MEASUREMENT": 6.54}
{"COMPOUND": "COc1nc(NS(=O)(=O)c2c[nH]c3c(F)c(Cl)ccc23)ncc1OC(F)F [Example 126]", "READOUT": "pIC50", "OBSERVED_MEASUREMENT": 7.09}
{"COMPOUND": "COc1nc(NS(=O)(=O)c2c[nH]c3cc(Br)ccc23)nc(OC)c1OCC#N [Example 246]", "READOUT": "pIC50", "OBSERVED_MEASUREMENT": 7.72}
{"COMPOUND": "COc1nc(NS(=O)(=O)c2c[nH]c3c(F)c(C(F)F)ccc23)nc(OC)c1CCC#N [Example 252]", "READOUT": "pIC50", "OBSERVED_MEASUREMENT": 7.85}

## Input Item COc1nc(NS(=O)(=O)c2c[nH]c3cc(Br)ccc23)ncc1OCCF [Example 25] has what recorded pIC50?
## Output 7.64

## Input Item COc1nc(NS(=O)(=O)c2csc3nc(Br)ccc23)ncc1CCC(F)F [Example 270] has what recorded pIC50?
## Output 7.14

## Input Item COc1nc(NS(=O)(=O)c2c[nH]c3cc(Cl)ccc23)ncc1CCC1COC1 [Example 181] has what recorded pIC50?
## Output 4.77

## Input Item COc1nc(NS(=O)(=O)c2c[nH]c3c(C4CC4)c(Cl)ccc23)ncc1CC(F)F [Example 233] has what recorded pIC50?
## Output 6.69

## Input Item COc1nc(NS(=O)(=O)c2csc3nc(Br)ccc23)ncc1OC(F)(F)CF [Example 147] has what recorded pIC50?
## Output 6.98

## Input Item COc1nc(NS(=O)(=O)c2csc3c(F)c(Cl)ccc23)ncc1CC(F)F [Example 162] has what recorded pIC50?
## Output 6.61
